These entries and their values trace back to ChEMBL document CHEMBL3988442.

- tested target: Chromo domain-containing protein 1 (Saccharomyces cerevisiae (strain ATCC 204508 / S288c) (Baker's yeast))
- experiment description: ScCHD-1 Enzyme Inhibition Assay; note: in the data most compounds retested in dose-response had high values
- Format: functional
- Parameters: scale not given: direction of the effect not stated beside the values
- assay setup: 30 µM
Kindly supply the reported Percent Effect values for the records listed here.
One number for each entry, in %.

// for each compound below, give its Percent Effect
1. COCCN1C[C@@H]2[C@@H](OC)CCN(Cc3cccc(C)n3)[C@@H]2C1
2. O=C([C@H]1C[C@H]2OCC[C@H]2N(Cc2ccncc2)C1)N1CCCCO1
3. Cc1cccc(CN2C[C@H](NS(C)(=O)=O)[C@@H]3OCCC[C@@H]32)n1
4. O=C1CC[C@H]2[C@H](CCN2Cc2ccccn2)N1CC1CCOCC1
5. CN(C)[C@@H]1CCN(C(=O)Cc2ccc(F)cc2)[C@H]1Cc1cnn(C)c1
6. c1ccc(CN2CCC3(CC2)CCN(Cc2cccs2)C3)nc1
7. O=C(C1CCC1)N1CCC2(CC1)OCCO2

Response given:
1: -5.26; 2: -6.46; 3: -2.83; 4: -0.494; 5: 1.98; 6: -12; 7: -0.64

// for each compound below, give its Percent Effect
1. O=C1CC2(CCN(CC3CC3)C2)CN1c1cccnc1 (stereo unspecified)
2. O=C1CC2(CCN(Cc3ccccn3)C2)CN1c1cncnc1 (stereo unspecified)
3. O=C(NC[C@]12COC[C@H]1CN(Cc1cccnc1)C2)c1ccno1
4. Cc1noc(C)c1CN1C[C@H](OCC2CC2)[C@H]2OCCC[C@H]21
5. Cc1cccc(CN2CC[C@@H]3[C@@H]2CCN3C(=O)c2cnoc2C)n1
6. O=C1CC[C@@H]2[C@@H](CCN2Cc2ccncc2)N1c1ccccc1
7. O=C(c1ccsc1)N1CCN2C[C@H](OCc3cccnc3)C[C@H]2C1
8. c1ccc(CN2CCO[C@H]3[C@H](OCCN4CCCC4)CC[C@@H]32)nc1

Response given:
1: -7.21; 2: 5.33; 3: -7.79; 4: -10.2; 5: -1.59; 6: -2.91; 7: -3.5; 8: 0.266

// for each compound below, give its Percent Effect
1. O=C(COc1ccccc1)N1C[C@@H](O)[C@H](N2CCCC2)C1
2. O=C1CSC(c2cccs2)c2cnn(C3CCCC3)c2N1 (stereo unspecified)
3. c1cnc(N2CCCC3(CCN(Cc4ccncc4)C3)C2)nc1 (stereo unspecified)

Response given:
-22
66.9
-3.48

* * *

Kindly supply the reported Percent Effect values for the records listed here.
- tested target: Shiga toxin 2 (Escherichia coli O157:H7) (UniProt P09385+P09386)
- experiment description: E. coli 0.157:H7 Shiga Toxin SOP - stx2 screening assay
- Assay type: functional
- Design: scale not given: direction of the effect not stated beside the values
- assay setup: 30 µM
One number for each entry, in %.

Some compounds with recorded Percent Effect:
c1ccc(-c2nc(CNC3CCc4ncnn4C3)co2)cc1 (centres undefined) ... -10.8
COc1ccc(C)cc1CN1CCCC1c1noc(C2CC2)n1 (centres undefined) ... -3.88
O=C(Cc1ccc(F)cc1)NCCNCC1CNc2ccnn2C1 (centres undefined) ... -33.6

// for each compound below, give its Percent Effect
1. COc1ccc(CN2CCCC(Cn3nc(C)nc3C)C2)cc1F (centres undefined)
2. Cc1cc(NC(=O)CN2CCc3nn(C)c(=O)cc3C2)on1
3. Cc1cc(C(=O)N2CCCC2Cn2nc(C)cc2C)on1 (centres undefined)
4. O=C(c1cnc(-c2cccs2)s1)N1CCCC(n2cccn2)C1 (centres undefined)
5. Cc1ccc(-c2nc(CN3CCC(C(=O)N(C)C)CC3)cs2)o1
6. CCC(=O)N(C)C1CCN(Cc2ncc(C)c(OC)c2C)CC1

Response given:
-1.86
-13.1
20
17.4
-24.2
-19.9

// for each compound below, give its Percent Effect
1. O=C(c1ccc[nH]1)N1CCC(c2nccn2Cc2ccncc2)CC1
2. O=C(c1cnccn1)N1CCOCC2(CCN(C3CCOCC3)C2)C1 (centres undefined)
3. CCS(=O)(=O)NC(C(=O)NC)c1ccc(F)c(F)c1 (centres undefined)
4. O=C(CN1CCCC1Cn1cccn1)NC1CCOCC1 (centres undefined)
5. Cc1cc(S(=O)(=O)NCc2cccc(C(=O)N3CCCC3)c2)c(C)s1
6. NS(=O)(=O)Cc1ccc(CNC(=O)NCC2CCOC2)cc1 (centres undefined)

Response given:
-10.8
-36.9
10.3
13.3
5.68
26.9

// for each compound below, give its Percent Effect
1. CC(C)N1CCc2c(C#N)c(NCc3ccco3)n3cnnc3c2C1
2. O=C(C[C@@H]1COC[C@H]2CN(Cc3ccc(F)cc3)C[C@@H]12)N1CCOCC1
3. CCn1ccnc1CN1CCC(N(C)Cc2ncc(C)o2)C1 (centres undefined)

Response given:
1. -4.38
2. -38.2
3. -39.6

* * *

- tested target: Aspartate--tRNA(Asp/Asn) ligase (Mycobacterium tuberculosis (strain ATCC 25618 / H37Rv)) (UniProt P9WFW3); note: in the data most compounds retested in dose-response had high values
- Sequence (P9WFW3 whole entry): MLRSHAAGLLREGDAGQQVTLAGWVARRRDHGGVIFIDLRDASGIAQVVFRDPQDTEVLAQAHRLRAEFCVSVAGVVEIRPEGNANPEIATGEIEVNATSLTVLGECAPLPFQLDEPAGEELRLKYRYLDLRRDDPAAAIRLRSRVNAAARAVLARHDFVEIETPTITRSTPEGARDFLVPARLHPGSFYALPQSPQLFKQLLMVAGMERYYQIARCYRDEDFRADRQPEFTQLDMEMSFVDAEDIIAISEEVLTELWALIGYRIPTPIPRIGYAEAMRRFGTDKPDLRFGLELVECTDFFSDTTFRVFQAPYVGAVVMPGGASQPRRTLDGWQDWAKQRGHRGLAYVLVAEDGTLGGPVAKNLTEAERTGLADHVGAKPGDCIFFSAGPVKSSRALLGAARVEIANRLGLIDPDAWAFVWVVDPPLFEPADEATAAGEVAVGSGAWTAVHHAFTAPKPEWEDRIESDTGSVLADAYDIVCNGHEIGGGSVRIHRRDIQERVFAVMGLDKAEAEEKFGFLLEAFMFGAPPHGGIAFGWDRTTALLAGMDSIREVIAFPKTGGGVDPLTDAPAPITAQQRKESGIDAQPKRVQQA
- experiment description: Assay for Asp RNA synthetase-1 from Mycobacterium tuberculosis
- Type: functional
- Parameters: scale not given: direction of the effect not stated beside the values
- assay setup: 30 µM
metric: Percent Effect (%)
Numbers only, in %.

Some compounds with recorded Percent Effect:
O=C(C1CCCc2[nH]ncc21)N1CCCC1 (configuration not stated) ... 2.61
CC(C)N(C)C(=O)C1=NOC2(CCN(C(=O)c3ccccn3)C2)C1 (configuration not stated) ... 2.07
CC(c1ccc(Cl)cc1)N1CCN(CCS(C)(=O)=O)CC1 (configuration not stated) ... -1.84
Cc1ncc2c(n1)CCN(Cc1nc3ccccc3o1)C2 ... 6.98
CS(=O)(=O)CC(=O)N1C[C@H]2CCC[C@@]2(COCc2ccccn2)C1 ... 4.11

// for each compound below, give its Percent Effect
1. Cc1cccc(Cn2c3c(ccc2=O)CCN(Cc2ccoc2)CC3)n1
2. CN(C)Cc1ccc(C2CCCCN2C(=O)c2cccc(CO)n2)cc1 (configuration not stated)
3. CCN(CC1CCOC1)C(=O)c1ccccc1NS(=O)(=O)CC (configuration not stated)
4. CCn1cc2c(n1)CN(Cc1ccoc1)CC2COCC1CC1 (configuration not stated)
5. O=C(NCCN1CCCCC1)c1scnc1Cl
6. CN(C)C(=O)CN1C(=O)CCC12CCN(Cc1cccn1C)CC2
7. COc1cc(C(=O)N(Cc2cnn(C)c2)C(C)C)ccc1OCC(N)=O

Response given:
[2.51, -3.06, -4.47, -4.69, -1.07, 4.89, 0.225]

* * *

- tested target: Aspartate--tRNA(Asp/Asn) ligase (Mycobacterium tuberculosis (strain ATCC 25618 / H37Rv)) (UniProt P9WFW3); note: in the data most compounds retested in dose-response had high values
- experiment description: Assay for Asp RNA synthetase-1 from Mycobacterium tuberculosis
- Format: functional
- Design: scale not given: direction of the effect not stated beside the values
- assay setup: 30 µM
Kindly supply the reported Percent Effect values for the records listed here.
Numbers only, in %.

Some compounds with recorded Percent Effect:
CN1CCN(CCO)C(=O)C12CCN(Cc1ccsc1)CC2 ... -3.89
Cc1cccn2cc(CC(=O)N3CCCC(n4cncn4)C3)nc12 (stereo not drawn) ... 1.06
CCc1nc(CN(C(C)=O)C2CCN(Cc3cnc(C)cn3)C2)no1 (stereo not drawn) ... -0.742
Cn1nc(CNC(=O)C2COc3ccccc3O2)cc1C1CC1 (stereo not drawn) ... 6.34

// for each compound below, give its Percent Effect
1. CC(C)Cc1noc(CN2CCCC(Cn3cncn3)C2)n1 (stereo not drawn)
2. NC(=O)C1CCN(C(=O)Cn2nc(-c3ccccc3)oc2=O)C1 (stereo not drawn)
3. CCSCCNC(=O)C(c1cccc(F)c1)N(C)C (stereo not drawn)
4. COc1ccccc1C(=O)N(C)Cc1ncc(C)c(OC)c1C
5. O=C(CN1CCCCC1Cn1cccn1)NC1CCN(C2CC2)CC1 (stereo not drawn)
6. Cc1cnn(CCNCc2ccccc2Oc2cccnc2)c1
7. CCn1c(Nc2ccccc2OC)nc2c(C)nn(C)c2c1=O

Response given:
-2.91
7.46
0.0558
-4.81
1.64
10.1
-3.4

* * *

- tested target: Shiga toxin 2 (Escherichia coli O157:H7) (UniProt P09385+P09386)
- experiment description: E. coli 0.157:H7 Shiga Toxin SOP - stx2 screening assay
- Assay type: functional
- Design: scale not given: direction of the effect not stated beside the values
- assay setup: 30 µM
Kindly supply the reported Percent Effect values for the records listed here.
Write your answer as a measured quantity: the number, then the unit.

Some compounds with recorded Percent Effect:
O=C(Cc1ccc2c(c1)CCO2)N1CCN(c2cnccn2)CC1 ... -23.3%
CCN(CC1CCOC1)C(=O)c1ccccc1NS(=O)(=O)CC (centres undefined) ... 33.3%
Cc1ccc(-c2noc(CN3CCOC(Cn4cncn4)C3)n2)cc1 (centres undefined) ... 5.98%
CCCN(Cc1ccccc1)Cn1nc(C)c2c(C)onc2c1=O ... 6.54%
Cc1cccc(C(=O)NCc2ccc(S(N)(=O)=O)cc2)n1 ... -16.4%

// for each compound below, give its Percent Effect
1. Cc1ccc(CCN2CCC(N(C)Cc3noc(C4CC4)n3)C2)cc1 (centres undefined)
2. CCc1nc(COc2ccc(OCc3cnn(C)c3)cc2)no1
3. O=C(c1cccnc1)N1CCn2nnc(COc3cccnc3)c2C1
4. CCn1cc(NC(=O)C2CCN(CCOC(C)C)CC2)cn1
5. CC(C)NC(=O)C1CN(C(=O)Nc2ccccc2)CC12CCOCC2 (centres undefined)
6. Cc1cc(C)c2cc(CNCC3CCCO3)c3nn(C)c(=O)n3c2c1 (centres undefined)
7. O=C(Cn1ccc2ccc(Br)cc21)NC[C@@H]1CCCN2CCCC[C@H]12

Response given:
1: -69.9%; 2: -31%; 3: -23.3%; 4: 17.1%; 5: -4.72%; 6: 3.55%; 7: -42.1%
